ASSAY_SYSTEM: Lethal factor (Bacillus anthracis)
MEASUREMENT_PROTOCOL: anthrax lethal factor cleavage blockers – biochemical, multiplex microsphere, MLPCN library, primary screen (AID 588501)
PARTICULARS: multiplex microsphere protease cleavage assay, LF; at 10 µM
Hit rate of the full screen: of about 360,000 compounds, about 420 (0.12%) were called active. Rule as the data show it: active = inhibition above about 30%; inconclusive = no clear call, values can overlap the other calls; inactive = below that. Many of the other results were omitted from the sample, so actives are more common in it than they were.
Choose one outcome from this list and give only that: active, inactive

Answered examples (5):
Which outcome was entered for the molecule C=CCNC(=O)/C=C/c1ccc(C(C)C)cc1 in this test? inactive

Could you kindly confirm the outcome this assay logged for COc1ccccc1CNC(=O)c1cc(-c2cc(F)ccc2OC)n[nH]1 ? inactive

Recorded test outcome, item Cc1onc(-c2ccccc2Cl)c1C(=O)NCCn1ccc2ccccc21 active

How was C/C=C/C(=O)Nc1nnc(C(C)C)s1 classified in this test? inactive

Short answer needed: outcome of this test for CC1CCN(CC(=O)Nc2nccs2)CC1 ? inactive

Further cases:
// outcome(item) with item = COc1cc(/C=C2\SC(=O)NC2=O)ccc1OCc1ccc(Cl)nc1 inactive

Kindly provide the recorded test outcome for the following molecule: COc1ccc(N2CCN(C(=O)c3ccccc3NC(=O)C3=C(C)OCCS3)CC2)cc1 inactive

Outcome logged for NC1=NC(=O)S/C1=C\c1ccc(O)cc1 in this assay: inactive

Recorded call for CN(C)c1ccc(/C=C2\CC3C4CC=C5CC(O)CCC5(C)C4CCC3(C)C2=O)cc1 (stereo unspecified) ? inactive

Short answer needed: outcome of this test for Cc1nccn1-c1ccc(NC(=O)[C@H]2O[C@@H](n3cnc4c(N)ncnc43)[C@H](O)[C@@H]2O)cc1 ? inactive

Per the assay record, what outcome was assigned to COc1ccc(CCNC(=O)CN(c2ccccc2)S(C)(=O)=O)cc1 ? inactive

In this assay, the call recorded for O=C(/C=C(O)/C=C/c1ccc(O)cc1)/C=C/c1ccc(O)cc1 was what? active

Tell me the recorded outcome of this test for CC(=O)c1nn(-c2ccc(C)cc2)cc1C(=O)c1cccc(Br)c1 . inactive

Per the records of this test, what outcome belongs to COCCNc1ncnc2c1nc1n2CCCC1 ? inactive

What did this assay record as the result for COc1ccc(CN2CC(C(=O)NCCN3CCN(c4ccccc4F)CC3)CC2=O)cc1 (stereo unspecified) ? inactive

Recorded test outcome, item CCCCC(CC)CNC(=O)C(=O)C1C(=O)Nc2ccccc21 (stereo unspecified) inactive

Give the logged outcome of this assay for the following molecule: CCCCC(NS(=O)(=O)c1ccc(C)cc1)C(=O)Oc1ccc2c3c(c(=O)oc2c1)CCC3 (stereo unspecified) inactive

Please state the recorded outcome for this molecule: Cc1ccc2cc(CCNC(=O)c3c(-c4ccccc4Cl)noc3C)c(=O)[nH]c2c1 inactive

Recorded test call requested for Cc1onc(-c2ccccc2Cl)c1C(=O)N(Cc1ccc(N(C)C)cc1)C(C)C inactive

Fill in: this test's call for COc1ccc(-c2[nH][nH]c(=O)c2NC(=O)c2ccc([N+](=O)[O-])cc2)cc1 is ___ inactive

What did the test return for Cc1ccc(NS(=O)(=O)c2ccc(-c3coc(C)n3)cc2)c(C)c1 ? inactive

What is the recorded call for this molecule in the test? Cc1noc(C)c1CSc1nnc2ccc3ccccc3n12 inactive
